The reported measurements were obtained from patent US20200308299A1.

pKd: recorded values
# SYSTEM_UNDER_TEST: T1, human Glypican-1 (UniProt P35052 24-530)
# T1 chain: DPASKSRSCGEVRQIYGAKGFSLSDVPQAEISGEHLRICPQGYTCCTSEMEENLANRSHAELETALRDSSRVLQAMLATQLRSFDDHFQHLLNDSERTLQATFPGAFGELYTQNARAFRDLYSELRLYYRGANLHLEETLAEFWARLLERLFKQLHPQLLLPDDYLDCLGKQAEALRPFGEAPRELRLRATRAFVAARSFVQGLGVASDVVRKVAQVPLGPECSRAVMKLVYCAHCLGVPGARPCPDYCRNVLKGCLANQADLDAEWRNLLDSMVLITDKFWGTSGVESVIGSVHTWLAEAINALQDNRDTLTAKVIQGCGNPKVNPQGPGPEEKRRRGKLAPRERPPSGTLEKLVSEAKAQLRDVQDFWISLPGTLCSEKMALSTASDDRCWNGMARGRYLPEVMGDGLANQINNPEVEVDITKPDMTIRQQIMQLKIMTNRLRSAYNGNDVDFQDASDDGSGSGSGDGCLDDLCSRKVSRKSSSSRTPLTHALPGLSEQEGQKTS
# PROTOCOL_NOTES: Biacore
Remember, pKd is on a log scale: it is -log10 of the molar concentration.

Example cases with answers are listed next.
>  <BINDER>
anti-Glypican-1 antibody clone K090-01a017 (antibody, V domains shown) VH: EVQLQQSGGELVRPGTSVKMSCKAAGYTFTNYWIGWVKQRPGHGLEWIGDLYPGGGYTHYNEKFKGKATLTADTSSSTAYMQLSSLTSEDSAIYYCARERVYFDGSRYFDVWGAGTTVTVSS VL: SIVMTQTPKFLPVSAGDRVTMTCKASQSVGNNVAWYQQKPGQSPKLLIYYASNRYTGVPDRFTGSGSGTDFTFTISSVQVEDLAVYFCQQHYSSPWTFGGGTKLEIKR

>  <pKd>
7.60

$$$$
>  <BINDER>
anti-Glypican-1 antibody clone K090-02a014 (antibody, V domains shown) VH: EVQLQQSGPELVKPGASVKISCKASGYSFTGYYIHWVKQSPEKSLEWIGEINPSTGDITYNQKFKAKATLTVDKSSSTAYMQLKSLTSDDSAVYYCARERNYDRFAYWGQGTLVTVSS VL: SIVMTQTPALMAASPGEKVTITCSVSSSISSSNLHWYQQKSETSPKPWIYGTSNLASGVPVRFSGSGSGTSYSLTISSMEAEDAATYYCQQWSSYPLTFGAGTKLEIKR

>  <pKd>
8.60

$$$$
>  <BINDER>
anti-Glypican-1 antibody clone K090-01a042 (antibody, V domains shown) VH: QVQLQQPGAELAKPGASVKMSCKASGYTFTRYWMHWVKQRPGQGLEWIGYINPSSGYTEYNQKFKDKATLTADKSSSTAYMQLSSLTSEDSAVYYCVRLGDYSYYFDYWGQGTTLTVSS VL: DVVMTQTPLSLPVSLGDQASISCRSSQSIVHSNGNTYLEWYLQKPGQSPKLLIYKVSNRFSGVPDRFSGSGSGTDFTLKISRVEAEDLGVYYCFQGSHVPWTFGGGTKLELKR

>  <pKd>
7.79

$$$$
>  <BINDER>
anti-Glypican-1 antibody clone K090-02b006 (antibody, V domains shown) VH: EVQLVESGGGLVKPGGSRKLSCAASGFTFSDYGMHWVRQAPEKGLEWVAYISSGSSTIYYADTVKGRFTISRDNAKNTLFLQMTSLRSEDTAIYYCVRHSYYNYDIGGYYAMDYWGQGTSVTVSS VL: DIVLTQSPSSLSASLGERVSLTCRASQEISGYLSWLQQKPDGTIKRLIYAASTLDSGVPKRFSGSRSGSDYSLTISSLESEDFADYYCLQYASYPLTFGAGTKLEIKR

>  <pKd>
7.79

$$$$
>  <BINDER>
anti-Glypican-1 antibody clone K090-01a030 (antibody, V domains shown) VH: QVQLQQSGAELVRPGTSVKMSCKAAGYTFTNYWIGWVKQRPGHGLEWIGDIYPGGGYTHYNEKFKGKATLTADTSSSTAYMQLSSLTSEDSAIYYCARERVYYDGSRYFDVWGAGTTVTVSS VL: DIKMTQSPKFLPVSAGDRVTMTCKASQSVGNNVAWYQQKPGQSPKLLIYYASNRYTGVPDRFTGSGSGTDFTFTISSVQVEDLAVYFCQQHYSSPWTFGGGTKLEIKR

>  <pKd>
7.37

$$$$
>  <BINDER>
anti-Glypican-1 antibody clone K090-02a002 (antibody, V domains shown) VH: EVKLVESGGGLVKPGGSRKLSCAASGFTFSDYGMHWVRQAPEKGLEWVAYISSGSSTIYYADTVKGRFTISRDNAKNTLFLQMTSLRSEDTAMYYCARHSYYSYDVGGDYVMDYWGQGTSVTVSS VL: DIVMSQSPKFMSTSVGDRVSITCKASQDVGTAVAWYQQKPGQSPKLLIYWASTRHTGVPDRFTGSGSGTDFTLTISNVQSEDLADYFCQQYSSYPLTFGAGTKLEIKR

>  <pKd>
8.95

$$$$
>  <BINDER>
anti-Glypican-1 antibody clone K090-01a033 (antibody, V domains shown) VH: QVQLKQSGPELVKPGASVKISCKASGYSFTGYYMHWVKQSPEKSLEWIGEINPSTGDTTYNQKFKAKATLTVDKSSSTAYMQLKSLTSEDSAVYYCAREKRDDGVFAYWGQGTLVTVSS VL: DIVMSQSPKSMSMSVGERVALSCKASENVGTYVSWYQQKPEQSPKLLIYGASNRYTGVPDRFTGSGSATDFTLTISSVQAEDLADYYCGQSYSYPLTFGAGTKLELKR

>  <pKd>
8.05

$$$$

Note: attention shifts to another entry.
Prompt: Give its pKd value. Item: anti-Glypican-1 antibody clone K090-01a009 (antibody, V domains shown) VH: EVQLQQSGPELVKPGASVEISCKASGYSFTGYFMNWVKQSQGKSLEWIGRINPDNGDIFYNQKFKGKATLTVDKSSSTAHMELRSLTSEDSAVYYCARSWNWYFDVWGAGTTVTVSS VL: DIQMTQSPASLSASVGETVTITCRASENIYSYLAWYQQKQGKSPQLLVYNAKTLAEGVPSRFSGSGSGTQFSLKINSLQPEDFGSYYCQHHYGTPYTFGSGTKLEIKR
Response: 7.57
